# Test system: SNU-398 cells
# Assay: CellTiter-Glo viability assay, SNU-398
# Assay type: cell-based, human
# Measurement conditions: 72 h, read-out: IC50 of cell proliferation / viability
Measure name: IC50

>>> observed_value("COc1ccccc1NC(=O)Nc1ccc([N+](=O)[O-])cc1O")
"397 nM"

====

# Assay: CellTiter-Glo viability assay, SALL4-low cell panel
# Format: cell-based, human
# Measurement conditions: human, SNU-387, SNU-449, SNU-475 and H1299 cells (SALL4-low); SALL4-low cells, highest dose 30 μM, 72 h; read-out: cells remained viable
Measure name: viability at 72 h, 30 μM

>>> observed_value("COc1ccccc1NC(=O)Nc1ccc([N+](=O)[O-])cc1O")
"30 to 60%"
